Tested on: Saccharomyces cerevisiae;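 also: PSI is a weighted mean of sequencing reads over stability bins, variants kept only with over 10 reads, mCherry proximal and sfGFP distal, peptide attached via GGGS linker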
TEST: protein stability index of tFT-peptide fusion (C-terminal peptide) (PSI (0-1 scale)); higher = more stable (slower turnover)
CONDITION_INFO: genetic background: wild type; temperature: 30 C
Where protein stability index equals or exceeds 0.3, the correct label is 1; where it does not, the label is 0.

Request: Could you verify whether the entry SWMFKLCIQWNV shows protein stability index of no less than 0.3?
Result: 1

Request: Could you verify whether the entry LWCLVWGGVWGV shows protein stability index of no less than 0.3?
Result: 1

Request: Could you verify whether the entry RWTKMNNLIIEF shows protein stability index of no less than 0.3?
Result: 1

Request: Could you verify whether the entry LCLICLFLLKVL shows protein stability index of no less than 0.3?
Result: 0

Request: Could you verify whether the entry VSLLVFVVSSRV shows protein stability index of no less than 0.3?
Result: 0

Request: Could you verify whether the entry GRVCWVVLAGLV shows protein stability index of no less than 0.3?
Result: 1

Request: Could you verify whether the entry YVSSFSLVVLLS shows protein stability index of no less than 0.3?
Result: 0

Request: Could you verify whether the entry WQGLSGSPILVI shows protein stability index of no less than 0.3?
Result: 0

Request: Could you verify whether the entry CFLSWSLRFFIL shows protein stability index of no less than 0.3?
Result: 0

Request: Could you verify whether the entry FVLWYFCCVGCM shows protein stability index of no less than 0.3?
Result: 0

Request: Could you verify whether the entry SVPCWVFLFCLA shows protein stability index of no less than 0.3?
Result: 0

Request: Could you verify whether the entry VSFLVSIFVSGV shows protein stability index of no less than 0.3?
Result: 0

Request: Could you verify whether the entry FSFPIIFFGMFL shows protein stability index of no less than 0.3?
Result: 1

Request: Could you verify whether the entry VVGVVVCWGCGW shows protein stability index of no less than 0.3?
Result: 1

Request: Could you verify whether the entry LILLTFTLRVPV shows protein stability index of no less than 0.3?
Result: 0

Request: Could you verify whether the entry WSWCLDVVCFTS shows protein stability index of no less than 0.3?
Result: 1

Request: Could you verify whether the entry FACLTPFCLCLT shows protein stability index of no less than 0.3?
Result: 1

Request: Could you verify whether the entry CFFGFRAGLFLG shows protein stability index of no less than 0.3?
Result: 0

Request: Could you verify whether the entry LFTRWSILFKLF shows protein stability index of no less than 0.3?
Result: 0

Request: Could you verify whether the entry VSGSFRVCFRVW shows protein stability index of no less than 0.3?
Result: 1

Request: Could you verify whether the entry LSSRGGRCRRLV shows protein stability index of no less than 0.3?
Result: 1

Request: Could you verify whether the entry LAPPFPVVLTPA shows protein stability index of no less than 0.3?
Result: 0

Request: Could you verify whether the entry LDLPFESGIACF shows protein stability index of no less than 0.3?
Result: 0

Request: Could you verify whether the entry FHLFIRRSAVIF shows protein stability index of no less than 0.3?
Result: 1

Request: Could you verify whether the entry YLFFVCLHLKAG shows protein stability index of no less than 0.3?
Result: 0

Request: Could you verify whether the entry WYYTWKQLVMIV shows protein stability index of no less than 0.3?
Result: 0

Request: Could you verify whether the entry GFLWFCGVPVGW shows protein stability index of no less than 0.3?
Result: 1

Request: Could you verify whether the entry RLFSPPVLATPS shows protein stability index of no less than 0.3?
Result: 1

Request: Could you verify whether the entry PHFDLLLCLSLN shows protein stability index of no less than 0.3?
Result: 0

Request: Could you verify whether the entry PHLDLYRLSALI shows protein stability index of no less than 0.3?
Result: 1

Request: Could you verify whether the entry TLKRCFRWCRTT shows protein stability index of no less than 0.3?
Result: 0

Request: Could you verify whether the entry IPRSCRIRLAVL shows protein stability index of no less than 0.3?
Result: 0

Request: Could you verify whether the entry VLRLVLFVLISV shows protein stability index of no less than 0.3?
Result: 0

Request: Could you verify whether the entry SFVCFSYYIVNI shows protein stability index of no less than 0.3?
Result: 1

Request: Could you verify whether the entry TVRLPLILPCVL shows protein stability index of no less than 0.3?
Result: 1

Request: Could you verify whether the entry FLFSSLFCFLFL shows protein stability index of no less than 0.3?
Result: 1

Request: Could you verify whether the entry RRVRVVCVIVAA shows protein stability index of no less than 0.3?
Result: 0

Request: Could you verify whether the entry VIAYSLLSWGDF shows protein stability index of no less than 0.3?
Result: 1

Request: Could you verify whether the entry KSSIGVWTLLIR shows protein stability index of no less than 0.3?
Result: 1

Request: Could you verify whether the entry VLSCVWFVVVGV shows protein stability index of no less than 0.3?
Result: 0

Request: Could you verify whether the entry IRLCAASFMVVF shows protein stability index of no less than 0.3?
Result: 1

Request: Could you verify whether the entry PLSPTNLSRLLS shows protein stability index of no less than 0.3?
Result: 0

Request: Could you verify whether the entry DLRRYRTLIPCK shows protein stability index of no less than 0.3?
Result: 0

Request: Could you verify whether the entry FSCSRNVLVTVV shows protein stability index of no less than 0.3?
Result: 0

Request: Could you verify whether the entry YVLLDFFFFFLV shows protein stability index of no less than 0.3?
Result: 0

Request: Could you verify whether the entry WLPFFPLSLRGV shows protein stability index of no less than 0.3?
Result: 1

Request: Could you verify whether the entry VPIIVVVYVFVT shows protein stability index of no less than 0.3?
Result: 0

Request: Could you verify whether the entry GWSRRFFCLFIV shows protein stability index of no less than 0.3?
Result: 0

Request: Could you verify whether the entry ALVGEVLWFQLV shows protein stability index of no less than 0.3?
Result: 1

Request: Could you verify whether the entry LVSSYVPFFFAL shows protein stability index of no less than 0.3?
Result: 0

Request: Could you verify whether the entry FFFLPLFLVLSL shows protein stability index of no less than 0.3?
Result: 0

Request: Could you verify whether the entry FALFCFVIFMSR shows protein stability index of no less than 0.3?
Result: 0

Request: Could you verify whether the entry WFVLYAEVMGFW shows protein stability index of no less than 0.3?
Result: 0

Request: Could you verify whether the entry FVRGWGIVFSLA shows protein stability index of no less than 0.3?
Result: 0

Request: Could you verify whether the entry PALLLFLRNLLL shows protein stability index of no less than 0.3?
Result: 1

Request: Could you verify whether the entry FLPSLSLPLLLF shows protein stability index of no less than 0.3?
Result: 1

Request: Could you verify whether the entry MFFSWVLSISLT shows protein stability index of no less than 0.3?
Result: 0

Request: Could you verify whether the entry TWGGGRVSLGGG shows protein stability index of no less than 0.3?
Result: 1

Request: Could you verify whether the entry VFLYVYAVWFLV shows protein stability index of no less than 0.3?
Result: 0

Request: Could you verify whether the entry VWWWGGVGWLMV shows protein stability index of no less than 0.3?
Result: 1

Request: Could you verify whether the entry PSPHRAPPGGHP shows protein stability index of no less than 0.3?
Result: 1

Request: Could you verify whether the entry VVFVVGAPPVLC shows protein stability index of no less than 0.3?
Result: 1

Request: Could you verify whether the entry VCNSIPLTPPPA shows protein stability index of no less than 0.3?
Result: 1

Request: Could you verify whether the entry RTWFTYMSIPVW shows protein stability index of no less than 0.3?
Result: 0

Request: Could you verify whether the entry KYKANLGNLKVH shows protein stability index of no less than 0.3?
Result: 0

Request: Could you verify whether the entry LSASFYFVFFSN shows protein stability index of no less than 0.3?
Result: 0

Request: Could you verify whether the entry PTYSCSIKIQAH shows protein stability index of no less than 0.3?
Result: 1

Request: Could you verify whether the entry NTNITHHSVKLR shows protein stability index of no less than 0.3?
Result: 1

Request: Could you verify whether the entry TMSGVTRCVLVL shows protein stability index of no less than 0.3?
Result: 1

Request: Could you verify whether the entry TVHVIVVCRELA shows protein stability index of no less than 0.3?
Result: 0

Request: Could you verify whether the entry STNMDNRIRTLA shows protein stability index of no less than 0.3?
Result: 1

Request: Could you verify whether the entry PFPRCRLIFFFM shows protein stability index of no less than 0.3?
Result: 0

Request: Could you verify whether the entry IFLGFGPLFGRL shows protein stability index of no less than 0.3?
Result: 1

Request: Could you verify whether the entry GPHATYLYLVLA shows protein stability index of no less than 0.3?
Result: 0

Request: Could you verify whether the entry PPGSPPGSLRPT shows protein stability index of no less than 0.3?
Result: 1

Request: Could you verify whether the entry LGSYIFVVVIYF shows protein stability index of no less than 0.3?
Result: 0

Request: Could you verify whether the entry FFGFYLKFVWCG shows protein stability index of no less than 0.3?
Result: 0

Request: Could you verify whether the entry VLYWTGTLFVSL shows protein stability index of no less than 0.3?
Result: 0
